molecular target: hNav1.8 (Homo sapiens, UniProt Q9Y5Y9); construct: host or cells: HEK cells, stably transfected; assay: hNav1.8 whole-cell patch-clamp electrophysiology (conventional or PatchXpress 7000) in stably transfected HEK cells; format: cell-based; conditions: estimated IC50 calculated from single point % inhibition; HEK cells expressing hNav1.8; 8 sec prepulse to V1/2, 20 msec step to 0 mV; average of replicates; read-out: Nav1.8 EIC50
Sequence (Q9Y5Y9 whole entry): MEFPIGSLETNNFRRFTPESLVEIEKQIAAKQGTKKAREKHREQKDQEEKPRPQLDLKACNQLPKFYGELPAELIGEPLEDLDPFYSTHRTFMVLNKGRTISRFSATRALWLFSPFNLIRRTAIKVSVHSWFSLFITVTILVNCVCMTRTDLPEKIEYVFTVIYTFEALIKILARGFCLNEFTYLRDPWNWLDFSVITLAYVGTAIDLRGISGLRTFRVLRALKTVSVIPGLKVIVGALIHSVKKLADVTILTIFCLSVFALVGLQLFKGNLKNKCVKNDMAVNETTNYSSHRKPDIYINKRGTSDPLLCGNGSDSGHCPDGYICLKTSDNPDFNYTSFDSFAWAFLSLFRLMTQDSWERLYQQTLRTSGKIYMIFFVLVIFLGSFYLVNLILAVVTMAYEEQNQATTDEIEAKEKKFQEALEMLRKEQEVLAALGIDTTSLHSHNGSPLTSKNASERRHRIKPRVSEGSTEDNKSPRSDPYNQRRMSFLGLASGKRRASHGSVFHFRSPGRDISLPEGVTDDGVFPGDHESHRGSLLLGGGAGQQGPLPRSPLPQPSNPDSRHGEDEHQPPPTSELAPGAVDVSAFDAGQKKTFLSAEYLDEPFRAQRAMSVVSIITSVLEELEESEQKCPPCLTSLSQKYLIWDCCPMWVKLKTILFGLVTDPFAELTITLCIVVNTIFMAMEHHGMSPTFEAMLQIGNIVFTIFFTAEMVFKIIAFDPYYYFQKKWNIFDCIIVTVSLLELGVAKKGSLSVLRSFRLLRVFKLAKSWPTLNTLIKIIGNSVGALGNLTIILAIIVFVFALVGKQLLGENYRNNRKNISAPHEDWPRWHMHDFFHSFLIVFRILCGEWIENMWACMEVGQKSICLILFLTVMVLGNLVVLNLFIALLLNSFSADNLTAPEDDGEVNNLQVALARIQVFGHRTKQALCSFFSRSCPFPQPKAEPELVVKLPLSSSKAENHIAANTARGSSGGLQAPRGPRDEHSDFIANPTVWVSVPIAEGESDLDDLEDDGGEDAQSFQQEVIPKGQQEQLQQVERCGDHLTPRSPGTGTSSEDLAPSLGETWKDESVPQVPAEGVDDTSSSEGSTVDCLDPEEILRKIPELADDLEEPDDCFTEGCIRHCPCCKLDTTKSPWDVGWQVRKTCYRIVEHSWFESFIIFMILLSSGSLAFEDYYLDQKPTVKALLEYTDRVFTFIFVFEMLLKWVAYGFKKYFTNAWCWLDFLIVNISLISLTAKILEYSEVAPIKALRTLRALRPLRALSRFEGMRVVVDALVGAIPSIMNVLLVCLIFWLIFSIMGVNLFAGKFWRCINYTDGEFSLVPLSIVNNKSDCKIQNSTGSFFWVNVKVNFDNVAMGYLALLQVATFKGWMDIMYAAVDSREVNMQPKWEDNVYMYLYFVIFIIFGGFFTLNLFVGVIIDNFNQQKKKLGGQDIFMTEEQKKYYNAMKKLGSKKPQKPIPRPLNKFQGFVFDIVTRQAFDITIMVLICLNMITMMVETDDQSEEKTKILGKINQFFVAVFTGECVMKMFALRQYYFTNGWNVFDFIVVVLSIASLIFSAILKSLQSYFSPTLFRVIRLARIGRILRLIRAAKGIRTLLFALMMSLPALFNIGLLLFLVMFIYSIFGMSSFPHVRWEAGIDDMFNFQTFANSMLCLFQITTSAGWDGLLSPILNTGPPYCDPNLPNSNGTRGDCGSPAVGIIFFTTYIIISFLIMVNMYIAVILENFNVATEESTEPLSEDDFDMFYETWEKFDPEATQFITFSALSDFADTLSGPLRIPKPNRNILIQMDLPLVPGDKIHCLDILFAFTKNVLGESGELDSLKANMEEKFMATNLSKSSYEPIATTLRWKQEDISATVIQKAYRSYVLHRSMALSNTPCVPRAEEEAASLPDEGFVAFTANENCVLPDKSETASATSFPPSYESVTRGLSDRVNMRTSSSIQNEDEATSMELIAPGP
pIC50: −log10 of the molar value.
Criterion: pIC50 meeting or surpassing 7. Met: Condition met. Not met: Condition not met.

Req: Check the entry `CCC[C@H](N)c1nc2cc(-c3ccc(C#N)c(F)c3)ccc2[nH]1` : does pIC50 equal or exceed 7?
Resp: Condition met

Req: Check the entry `N#Cc1ccc(-c2ccc3[nH]c([C@@H](N)CO)nc3c2)cc1` : does pIC50 equal or exceed 7?
Resp: Condition not met

Req: Check the entry `N#Cc1ccc(-c2ccc3[nH]c([C@@H](N)CC(N)=O)nc3c2)cc1F` : does pIC50 equal or exceed 7?
Resp: Condition not met

Req: Check the entry C[C@H](C(N)=O)[C@H](N)c1nc2cc(C(C)(C)C)ccc2[nH]1 (single isomer, unassigned) : does pIC50 equal or exceed 7?
Resp: Condition not met

Req: Check the entry `CCC(C)(C)c1ccc2[nH]c(C3(N)Cc4ccccc4C3)nc2c1` : does pIC50 equal or exceed 7?
Resp: Condition not met

====

# key: entry, value: IC50
target: hNav1.8 (Homo sapiens); construct: host or cells: HEK cells, stably transfected; test: hNav1.8 whole-cell patch-clamp electrophysiology (conventional or PatchXpress 7000) in stably transfected HEK cells; type: cell-based; details: estimated IC50 calculated from single point % inhibition; HEK cells expressing hNav1.8; 8 sec prepulse to V1/2, 20 msec step to 0 mV; average of replicates; read-out: Nav1.8 EIC50
Unit nM implied. Number only.

N#Cc1ccc(-c2ccc3[nH]c([C@@H](N)CC(N)=O)nc3c2)cc1; 203
N#Cc1ccc(-c2ccc3[nH]c([C@H](N)c4ccccc4)nc3c2)cc1; 227
CC(C)[C@H](N)c1nc2cc(C(C)(C)C)ccc2[nH]1; 364
CC(C)CC[C@H](N)c1nc2cc(C(C)(C)C)ccc2[nH]1; 127

Now let's try a different one.
Just so you know, measured IC50 for `C[C@@H](O)[C@H](N)c1nc2cc(-c3ccc(C#N)cc3Cl)ccc2[nH]1` came out at 326

====

target: hNav1.8 (Homo sapiens); construct: host or cells: HEK cells, stably transfected; experiment: hNav1.8 whole-cell patch-clamp electrophysiology (conventional or PatchXpress 7000) in stably transfected HEK cells; type: cell-based; details: estimated IC50 calculated from single point % inhibition; HEK cells expressing hNav1.8; 8 sec prepulse to V1/2, 20 msec step to 0 mV; average of replicates; read-out: Nav1.8 EIC50
# key: entry, value: log10 of IC50
The base-10 logarithm of IC50, taken with IC50 in nM, is what appears here.

Some molecules with recorded log10 of IC50:
CC(C)(C)c1ccc2[nH]c([C@@H](N)C(C)(C)C)nc2c1; 2.64
CC[C@H](N)c1nc2cc(CC(C)(C)C)ccc2[nH]1; 2.27
CC[C@H](N)c1nc2cc(C3CCC3)ccc2[nH]1; 2.87
C[C@@H](OC(N)=O)[C@H](N)c1nc2cc(C(C)(C)C)ccc2[nH]1; 2.55
CO[C@@H](C)[C@H](N)c1nc2cc(C(C)C)ccc2[nH]1; 3.44
CC(C)(C)c1ccc2[nH]c([C@@H](N)CCCO)nc2c1; 2.35
CO[C@H](C)[C@H](N)c1nc2cc(-c3ccc(C#N)cc3F)ccc2[nH]1; 1.27
C[C@@H](O)[C@H](N)c1nc2c(Cl)c(-c3ccc(C#N)cc3)ccc2[nH]1; 3.40

Now let's try a different one.
Just so you know, measured log10 of IC50 for `C[C@@H](C(N)=O)[C@H](N)c1cn2cc(-c3ccc(C#N)cc3)ccc2n1` came out at 1.74
